# TEST SYSTEM: 6xHis-CaTps1 (Candida albicans, UniProt Q92410)
# Construct: Briefly, the full-length; thrombin cleavage site (pET-28a linker) (N); made in house; host or cells: E. coli BL21(DE3)pLysS
# Sequence (Q92410 whole entry): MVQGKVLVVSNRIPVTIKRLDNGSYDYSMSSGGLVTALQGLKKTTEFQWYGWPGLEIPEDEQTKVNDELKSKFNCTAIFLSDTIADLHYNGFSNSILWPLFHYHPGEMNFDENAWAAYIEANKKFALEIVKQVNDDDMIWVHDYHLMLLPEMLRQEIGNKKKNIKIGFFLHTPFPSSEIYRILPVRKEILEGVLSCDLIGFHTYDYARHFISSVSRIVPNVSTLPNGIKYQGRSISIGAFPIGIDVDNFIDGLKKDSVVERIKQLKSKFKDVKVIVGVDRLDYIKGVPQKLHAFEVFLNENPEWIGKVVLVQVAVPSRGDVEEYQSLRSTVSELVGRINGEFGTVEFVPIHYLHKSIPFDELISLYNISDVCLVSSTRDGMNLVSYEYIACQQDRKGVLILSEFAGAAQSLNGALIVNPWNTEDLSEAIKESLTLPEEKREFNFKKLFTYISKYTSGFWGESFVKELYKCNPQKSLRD
# METHOD NOTES: UDP Transcreener FP assay, primary screen of the 3PP library
# Type: biochemical
# STUDY CONDITIONS: primary screen, 500 µM compound, 5 µM 6xHis-CaTps1, 37°C 60 minutes; read-out: CaTps1 FP (% inhibition)
Binary call on inhibition at 500 µM: T from 30% upward, F beneath that.

**Query** hey, is inhibition at 500 µM for this one >= 30%? Nc1nc(-c2ccoc2)cs1 [SJ000866675-1, [4-furan-3-yl]thiazol-2-amine]
**Result** F

**Query** hey, is inhibition at 500 µM for this one >= 30%? O=C(C1CC1)N1CCCNCC1 [SJ000866536-1]
**Result** F

**Query** hey, is inhibition at 500 µM for this one >= 30%? N#CCC(=O)c1ccco1 [SJ000805629-1]
**Result** T

**Query** hey, is inhibition at 500 µM for this one >= 30%? CC(Cc1ccoc1)NS(C)(=O)=O (centres unmarked) [SJ000866077-1]
**Result** F

**Query** hey, is inhibition at 500 µM for this one >= 30%? CN1CCc2c(sc(N)c2C#N)C1 [SJ000866390-1]
**Result** T
